- Tested on: A549
- Protocol Text: Growth inhibition of human A549 cells measured after 48 hrs by SRB colorimetric assay
- Type: functional
Parameter: GI50 (µM)

[[record]]
smiles_input = "CCCCCCCCCCCCS[C@@H]1[C@@H](O)[C@@H](O)[C@H](O)[C@H]2COC(=O)N21"
result_operator = "="
number = 18

[[record]]
smiles_input = "CCCCCCCCCCCCS(=O)(=O)[C@@H]1[C@H](F)[C@@H](O)[C@H](O)[C@H]2COC(=O)N21"
result_operator = "="
number = 4.6

[[record]]
smiles_input = "O=C1OC[C@@H]2[C@@H](O)[C@H](OCc3ccccc3)[C@H](F)[C@@H](O)N12"
result_operator = ">"
number = 100

[[record]]
smiles_input = "O=C1OC[C@@H]2[C@@H](O)[C@H](O)[C@H](O)[C@@H](O)N12"
result_operator = ">"
number = 100

[[record]]
smiles_input = "CCCCCCCCCCCCS[C@@H]1[C@H](F)[C@@H](OCc2ccccc2)[C@H](O)[C@H]2COC(=O)N21"
result_operator = "="
number = 18

[[record]]
smiles_input = "O=C1OC[C@@H]2[C@@H](O)[C@H](O)[C@@H](O)[C@@H](O)N12"
result_operator = ">"
number = 100

[[record]]
smiles_input = "O=c1[nH]cc(F)c(=O)[nH]1"
result_operator = "="
number = 2.2

[[record]]
smiles_input = "O=C1OC[C@@H]2[C@@H](O)[C@H](O)[C@H](F)[C@@H](O)N12"
result_operator = ">"
number = 100

[[record]]
smiles_input = "CCCCCCCCCCCCS(=O)(=O)[C@@H]1[C@@H](F)[C@@H](O)[C@H](O)[C@H]2COC(=O)N21"
result_operator = "="
number = 2.9

[[record]]
smiles_input = "O=C1OC[C@@H]2[C@@H](O)[C@H](OCc3ccccc3)[C@@H](F)[C@@H](O)N12"
result_operator = ">"
number = 100

[[record]]
smiles_input = "CCCCCCCCCCCCS[C@@H]1[C@@H](F)[C@@H](OCc2ccccc2)[C@H](O)[C@H]2COC(=O)N21"
result_operator = "="
number = 13

[[record]]
smiles_input = "CCCCCCCCCCCCS(=O)(=O)[C@@H]1[C@H](F)[C@@H](OCc2ccccc2)[C@H](O)[C@H]2COC(=O)N21"
result_operator = "="
number = 4.3

[[record]]
smiles_input = "CCCCCCCCCCCCS[C@@H]1[C@H](F)[C@@H](O)[C@H](O)[C@H]2COC(=O)N21"
result_operator = "="
number = 17

[[record]]
smiles_input = "CCCCCCCCCCCCS[C@@H]1[C@H](O)[C@@H](O)[C@H](O)[C@H]2COC(=O)N21"
result_operator = "="
number = 16

[[record]]
smiles_input = "CCCCCCCCCCCCS(=O)(=O)[C@@H]1[C@@H](F)[C@@H](OCc2ccccc2)[C@H](O)[C@H]2COC(=O)N21"
result_operator = "="
number = 4.2

[[record]]
smiles_input = "O=C1OC[C@@H]2[C@@H](O)[C@H](O)[C@@H](F)[C@@H](O)N12"
result_operator = ">"
number = 100

[[record]]
smiles_input = "CCCCCCCCCCCCS(=O)(=O)[C@@H]1[C@@H](OC)[C@@H](O)[C@H](O)[C@H]2COC(=O)N21"
result_operator = "="
number = 15

[[record]]
smiles_input = "CCCCCCCCCCCCS(=O)(=O)[C@@H]1[C@H](O)[C@@H](OCc2ccccc2)[C@H](O)[C@H]2COC(=O)N21"
result_operator = "="
number = 7.1

